What growth was measured for each of the following?
# Test system: SW-620 colon
# run_description: NCI-60 one-dose screen, 48 h (100 = growth as untreated, 0 = no growth, -100 = all killed)
# measurement_context: 10 µM unless noted
The panel holds about 83,000 compounds, 20% with a hit somewhere; the sample as a whole holds those more often. Activity calls are given as the source filed them. Rule for the calls: active = growth percent below 10; inactive = the rest.

Query: Quick one: growth for Cc1cnc(C(=O)Nc2nc3ccc(S(=O)(=O)Nc4ccc(C(C)(C)C)cc4)cc3[nH]2)cn1 ?
Response: 18.6% (inactive)

Query: Quick one: growth for COc1cc(/C=N/NC(=O)c2cnn3c2NC(c2ccccc2)C3)ccc1Oc1ccccc1 (stereo unspecified) ?
Response: 24.9% (inactive)

Query: Quick one: growth for COc1ccc(C(=O)c2cc(C)c(OC)c(C)c2)c(OC)c1NC(C)=O ?
Response: 21.2% (inactive)

Query: Quick one: growth for COc1cc(-c2csc(NC(=O)c3cc(F)cc(C(F)(F)F)c3)n2)cc(OC)c1OC ?
Response: 32.4% (inactive)

Query: Quick one: growth for Cc1ccc(-n2nc3c(c(C#N)c2=O)CC(c2ccccc2[N+](=O)[O-])C([N+](=O)[O-])=C3O)cc1 (stereo unspecified) ?
Response: 89.1% (inactive)

Query: Quick one: growth for O=C(/C(=C\c1ccc([N+](=O)[O-])cc1)S(=O)Cc1ccc(Cl)cc1)c1ccc(Cl)cc1 (stereo unspecified) ?
Response: 28% (inactive)
